tested-system: Human autotaxin enzyme (Homo sapiens, UniProt Q13822)
Construct: purchased R&D System
assay-explanation: Evaluation of autotaxin inhibitor, Method C (Test Example 3): 18:0 Lyso PC, choline assay, Resorufin fluorescence
Format: biochemical
experimental-parameters: Assay Method C (Test Example 3), human autotaxin, 18:0 Lyso PC substrate; read-out: Inhibitory Activity (autotaxin enzyme inhibitory activity, IC50 class)
observable: IC50

compound | result
CCCCCn1c(-c2ccc(C(=O)NC[C@H](O)CO)cc2)cc(=O)n2cc(-c3ccc(Cl)cc3)nc12 | < 10 nM
CCCCCn1c(N2CCCC2CC(C)C)cc(=O)n2cc(-c3ccc(Cl)cc3)nc12 (stereo not drawn) | 10 to 100 nM

Q. Fill in the blank: the reported IC50 of CCCCCn1c(N2CCC(c3ccccc3)C2)cc(=O)n2cc(-c3ccc(Cl)cc3)nc12 (stereo not drawn) is ____.
A. 100 to 1000 nM

Q. Query "CCCCCn1c(N2CCC[C@H]2C(=O)N(CC(=O)O)Cc2ccccc2)cc(=O)n2cc(-c3ccc(Cl)cc3)nc12" next
A. < 10 nM

Q. Query "CCCCCn1c(O[C@H]2C[C@H](NC(=O)OC(C)(C)C)C2)cc(=O)n2cc(-c3ccc(Cl)cc3)nc12" next
A. 100 to 1000 nM

Q. Query "CCCCCn1c(-c2ccc(C(=O)NCCn3ccnc3)cc2)cc(=O)n2cc(-c3ccc(Cl)cc3)nc12" next
A. < 10 nM

Q. Query "CCCCCn1c(-c2ccc(C(=O)NCc3ccc(S(C)(=O)=O)cc3)cc2)cc(=O)n2cc(-c3ccc(Cl)cc3)nc12" next
A. 10 to 100 nM

Q. Query "CCCCCn1c(-c2ccc(C(=O)NCCF)cc2)cc(=O)n2cc(-c3ccc(Cl)cc3)nc12" next
A. 10 to 100 nM

Q. Query "CCCCCn1c(N2CCC[C@H]2C(=O)NC2(CC(=O)OC)CCOCC2)cc(=O)n2cc(-c3ccc(Cl)cc3)nc12" next
A. 10 to 100 nM

Q. Query CCCCCn1c(C2=CCC(C(=O)O)CC2)cc(=O)n2cc(-c3ccc(Cl)cc3)nc12 (stereo not drawn) next
A. 10 to 100 nM

Q. Query "CCCCCn1c(N2C[C@H](O)C[C@H]2C(=O)NC(C)(C)CC(=O)OCC)cc(=O)n2cc(-c3ccc(Cl)cc3)nc12" next
A. 10 to 100 nM

* * *

Catalogue of IC50 values
tested-system: Human autotaxin enzyme (Homo sapiens, UniProt Q13822)
Construct: purchased R&D System
assay-explanation: Evaluation of autotaxin inhibitor, Method B (Test Example 2): TG-mTMP fluorescence
Type: biochemical
experimental-parameters: Assay Method B (Test Example 2), human autotaxin; read-out: Inhibitory Activity (autotaxin enzyme inhibitory activity, IC50 class)

Solved entries (count: 2):
compound | result
CCCCCn1c(C(=O)O)cc(=O)n2cc(-c3ccc(Cl)cc3)nc12 [Compound 372] | 0.01 to 0.1 µM
CCCCCn1c(C)cc(=O)n2c(CN)c(-c3ccc(Cl)cc3)nc12 [Compound 172] | > 1 µM

// moving on: another record for IC50
Q. Fill in the blank: the reported IC50 of CCCCCn1c(C)cc(=O)n2c(C)c(-c3ccc(Cl)cc3)nc12 [Compound 170] is ____.
A. 0.01 to 0.1 µM
